Target: T1, active human C1s purified from human serum (CompTech, Tyler, TX, catalog number A104) (human, UniProt P09871 16-437; P09871 438-688)
T1 construct: Serum-derived material, biotinylated for the ELISA; also called human active C1s; active C1s
T1 sequence 1: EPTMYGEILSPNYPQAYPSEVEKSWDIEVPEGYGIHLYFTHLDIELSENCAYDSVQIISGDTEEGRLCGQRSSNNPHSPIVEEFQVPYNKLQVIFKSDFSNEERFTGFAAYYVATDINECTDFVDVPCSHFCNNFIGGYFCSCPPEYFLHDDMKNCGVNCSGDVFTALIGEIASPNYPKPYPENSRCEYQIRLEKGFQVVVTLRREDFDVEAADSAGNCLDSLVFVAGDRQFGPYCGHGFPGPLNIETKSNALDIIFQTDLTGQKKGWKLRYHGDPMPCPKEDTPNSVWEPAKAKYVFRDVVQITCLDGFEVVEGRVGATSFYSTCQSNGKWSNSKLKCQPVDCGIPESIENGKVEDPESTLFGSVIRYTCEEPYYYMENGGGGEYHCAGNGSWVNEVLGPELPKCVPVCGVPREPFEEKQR
T1 sequence 2: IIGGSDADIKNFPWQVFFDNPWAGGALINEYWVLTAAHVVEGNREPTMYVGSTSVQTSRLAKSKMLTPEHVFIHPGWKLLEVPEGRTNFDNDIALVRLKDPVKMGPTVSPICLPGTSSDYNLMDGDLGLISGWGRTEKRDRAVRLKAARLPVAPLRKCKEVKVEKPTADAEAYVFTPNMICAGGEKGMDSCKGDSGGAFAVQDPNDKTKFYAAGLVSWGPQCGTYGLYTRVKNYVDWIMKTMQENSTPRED
Test: SPR, antibody captured via anti-human Fc, C1s in solution
pKd: −log10 of the molar value.
Use True when the recorded pKd is no lower than 9; use False when it is lower.

binder="MAB28 (antibody, V domains shown, IgG) VH: EVQLVESGGGVVRPGGSLRLSCAASGFTFDDYGMSWVRQAPGKGLEWVSGINWEGGSTGYADSVKGRFSISRDNAKNSLYLQMNSLRAEDTALYYCARDEQLGGLKYYYYYMDVWGKGTTVTVSS VL: DIQMTQSPSSLSASVGDRVTITCRASQGIRNDLGWYQQKPGKAPKRLIYTASNLQSGVPSRFSGSGSGTEFTLTISSLQPEDFATYYCLQYHSYPLRFGGGTKVEIK" category_label=False
binder="MAB9 (antibody, V domains shown, The IgG4 YTE form is entered separately as IgG4-MAB9) VH: QVQLVESGGGLVKPGGSLRLSCAASGFTFSDYYMSWIRQAPGKGLEWVSYISRSGSTKYYADSVKGRFTISRDNAKNSLYLQMNSLRAEDTAVYYCARDENYALDWWGQGTLVTVSS VL: DIQMTQSPSSLSASVGDRVTITCQASQDISNYLNWYQQKPGKAPKLLIYDASNLETGVPSRFSGSGSGTDFTFTISSLQPEDIATYYCQHYEDYPLTFGGGTKVEIK" category_label=True
binder="MAB24 (antibody, V domains shown, IgG) VH: EVQLVESGGGVVRPGGSLRLSCAASGFTFDDYGMSWVRQAPGKGLEWVSGINWEGGSTGYADSVKGRFTISRDNAKNSLYLQMNSLRAEDTALYYCARDEQLGGTTYYYYYMDVWGKGTTVTVSS VL: DIQMTQSPSSLSASVGDRVTITCRASQGIRNDLGWYQQKPGKAPKRLIYTASNLQSGVPSRFSGSGSGTEFTLTISSLQPEDFATYYCLQTNIYPLTFGGGTKVEIK" category_label=False
